tested on: IFVA/Weiss/43; test: cytopathic effect (CPE) antiviral test in MDCK cells, IFVA/Weiss/43; type: cell-based, influenza virus; conditions: unidentified influenza virus, MDCK, 120 h, read-out: EC50(IFVA/Weiss/43), MDCK cells, CPE method, CCK-8 cell viability, 5 days
readout: pEC50
Field pEC50 (float): negative decimal logarithm of the concentration in molar.

Cn1nnc(C(c2ccccc2)N2CCN(C(=O)c3cc(-c4nc5cc(NC(=O)C6CC6)ccc5o4)ccn3)CC2)n1 (stereo not shown) : 7.92
O=C(Nc1ccc2oc(-c3ccnc(C(=O)N4C5CCC4CN(C(c4ccccc4)c4nnn(C(F)F)n4)C5)c3)nc2c1)C1CC1 (stereo not shown) : 7.89
CC(=O)Nc1ccc2oc(-c3ccnc(C(=O)N4CCN(C(c5ccccc5)c5nnn(C)n5)CC45CC5)c3)nc2c1 (stereo not shown) : 7.80
CC(C)(F)C(=O)Nc1ccc2oc(-c3ccnc(C(=O)N4CCN(C(c5ccccc5)c5nnn(C(F)F)n5)CC4)c3)nc2c1 (racemic) : 8.70
CC(=O)Nc1ccc2oc(-c3ccnc(C(=O)N4C[C@@H]5C[C@H]4CN5C(c4ccccc4)c4nnn(C)n4)c3)nc2c1 (stereo partly shown) : 6.42

The molecule listed as CC(=O)Nc1ccc2oc(-c3ccnc(C(=O)N4CC5CN(C(c6ccccc6)c6nnn(C)n6)CC5C4)c3)nc2c1 (stereo not shown) shows pEC50 equal to 6.11

Measured pEC50, O=C(Nc1ccc2oc(-c3ccnc(C(=O)N4CCN(C(c5ccccc5)c5nnn(C(F)F)n5)CC4)c3)nc2c1)C1CC1 (racemic) [Compound 196] : 8.22

Looking up O=C1CCCN1c1ccc2oc(-c3ccnc(C(=O)N4C5CCC4CN(C(c4ccccc4)c4nnn(C(F)F)n4)C5)c3)nc2c1 (stereo not shown) , I found its pEC50 recorded as 7.48

Quick note, pEC50 for O=C(Nc1ccc2oc(-c3ccnc(C(=O)N4CCN(C(c5ccccc5)c5nnn(C(F)F)n5)CC4)c3)nc2c1)C1CC1(F)F (single isomer, unassigned) landed at 8.15

Notebook: CC(=O)Nc1ccc2oc(-c3ccnc(C(=O)N4C5CCC4CN(C(c4ccccc4)c4nnnn4C(F)F)C5)c3)nc2c1 (stereo not shown) , pEC50 read as 6.37

Recorded pEC50 (molecule CC(=O)Nc1ccc2oc(-c3ccnc(C(=O)N4CCN(C(c5ccc(F)cc5)c5nnn(C)n5)CC4)c3)nc2c1 (stereo not shown) ): 7.66

Note to self: pEC50 recorded for O=C(Nc1ccc2oc(-c3ccnc(C(=O)N4CCN(C(c5ccccc5)c5nnn(C(F)F)n5)CC4)c3)cc2c1)[C@@H]1C[C@@H]1F (mixture of isomers) was 9.30

Measured pEC50, O=C(c1cc(-c2nc3cc(O[C@H]4CCOC4)ccc3o2)ccn1)N1CCN(C(c2ccccc2)c2nnn(C(F)F)n2)CC1 (stereo partly shown) : 8.40

----------
tested on: IFVA/Weiss/43; assay: cytopathic effect (CPE) antiviral test in MDCK cells, IFVA/Weiss/43; assay type: cell-based, influenza virus; settings: unidentified influenza virus, MDCK, 120 h, read-out: EC50(IFVA/Weiss/43), MDCK cells, CPE method, CCK-8 cell viability, 5 days
We begin with a simple list: items and their reported EC50.
State the answer as a number, implicitly in nM.

A selection of reference data follows.
CCC(=O)Nc1ccc2oc(-c3ccnc(C(=O)N4CCN(C(c5ccccc5)c5nnn(C(F)F)n5)CC4)c3)nc2c1 (racemic) [Compound 96] : 12
Cn1ccnc1-c1ccc2oc(-c3ccnc(C(=O)N4CCN(C(c5ccccc5)c5nnn(C(F)F)n5)CC4)c3)nc2c1 (racemic) [Compound 88] : 2
O=C(c1cc(-c2nc3cc(-c4cscn4)ccc3o2)ccn1)N1CCN(C(c2ccccc2)c2nnn(C(F)F)n2)CC1 (racemic) [Compound 110] : 3
Cn1ccnc1-c1ccc2oc(-c3ccnc(C(=O)N4CCN(C(c5ccccc5)c5nnn(C(F)F)n5)CC4)c3)nc2c1 (stereo not drawn) [Compound 72] : 4

Would you kindly look at the next entry?
Value of EC50 reported for the compound O=C(Nc1ccc2oc(-c3ccnc(C(=O)N4CCN(C(c5ccccc5)c5nnn(C(F)F)n5)CC4)c3)nc2c1)[C@@H]1C[C@@H]1F (mixture of isomers) [Compound 31] is 2

----------
tested on: IFVA/Weiss/43; experiment: cytopathic effect (CPE) antiviral test in MDCK cells, IFVA/Weiss/43; type: cell-based, influenza virus; conditions: unidentified influenza virus, MDCK, 120 h, read-out: EC50(IFVA/Weiss/43), MDCK cells, CPE method, CCK-8 cell viability, 5 days
We label by threshold. Values of EC50 strictly beneath 20 nM are met. Values of 20 nM and up are not met.

A selection of reference data follows.
O=C(c1cc(-c2nc3cc(N4CCCC4=O)ccc3o2)ccn1)N1CCN(C(c2ccccc2)c2nnn(C(F)F)n2)CC1 (stereo not shown) : met
CC(=O)Nc1ccc2oc(-c3ccnc(C(=O)N4CCC(O)(C(c5ccccc5)c5nnn(C)n5)CC4)c3)nc2c1 (stereo not shown) : not met
CC(=O)N(C)c1ccc2oc(-c3ccnc(C(=O)N4CCN(C(c5ccccc5)c5nnn(C(F)F)n5)CC4)c3)nc2c1 (racemic) : met
CC(=O)Nc1ccc2oc(-c3ccnc(C(=O)N4CCN(C(c5ccccc5)c5nnn(C)n5)C5(CC5)C4)c3)nc2c1 (stereo not shown) : not met

**Query** Is the reported EC50 for CC(=O)Nc1ccc2oc(-c3ccnc(C(=O)N4CCN(C(c5ccccc5)c5nnn(C(F)F)n5)CC4)c3F)nc2c1 (stereo not shown) [Compound 56] strictly below 20 nM?
**Result** met

**Query** # strict comparison: is reported EC50 < 20 nM? input = Cn1nnc(C(c2ccccc2)N2CCN(C(=O)c3cc(-c4nc5cc(NC(=O)[C@@H]6C[C@H]6F)ccc5o4)ccn3)CC2)n1 (stereo partly shown)
**Result** not met

**Query** A record lists CC(=O)Nc1ccc2oc(-c3ccnc(C(=O)N4C[C@H]5C[C@@H]4CN5C(c4ccccc4)c4nnn(C)n4)c3)nc2c1 (stereo partly shown) . Is its EC50 below 20 nM?
**Result** not met

**Query** Problem: For the molecule CC(=O)Nc1ccc2oc(-c3ccnc(C(=O)N4C5CCC4CN(C(c4ccccc4)c4nnn(C(F)F)n4)C5)c3)nc2c1 (stereo not shown) , is EC50 under 20 nM?
**Result** met

**Query** Item Cc1nnn(C(c2ccccc2)C2CCN(C(=O)c3cc(-c4nc5cc(NC(=O)[C@@H]6C[C@@H]6F)ccc5o4)ccn3)CC2)n1 (mixture of isomers) [Compound 120] : EC50 beneath 20 nM, strictly?
**Result** met

**Query** Threshold test, EC50 < 20 nM: O=C(Nc1ccc2oc(-c3ccnc(C(=O)N4CCN(C(c5ccccc5)c5nnn(C(F)F)n5)CC4)c3)nc2c1)[C@H]1C[C@H]1F (stereo partly shown)
**Result** met

**Query** EC50 under 20 nM? Item: CC(=O)Nc1ccc2oc(-c3ccnc(C(=O)N4CCN(C(c5ccccc5)c5nnn(C)n5)[C@H](C)C4)c3)nc2c1 (mixture of isomers) [Compound 16a]
**Result** not met

**Query** Is 20 nM strictly greater than the molecule's reported EC50? molecule: Cn1cc(-c2ccc3oc(-c4ccnc(C(=O)N5CCN(C(c6ccccc6)c6nnn(C(F)F)n6)CC5)c4)nc3c2)cn1 (racemic)
**Result** met

**Query** In the record for O=C(Nc1ccc2oc(-c3ccnc(C(=O)N4CCN(C(c5ccccc5)c5nnn(C(F)F)n5)CC4)c3)nc2c1)[C@@H]1C[C@H]1F (stereo partly shown) , is EC50 less than 20 nM?
**Result** met

----------
In this section, each of the compounds is paired with its reported EC50.
tested on: IFVA/Weiss/43; test: cytopathic effect (CPE) antiviral test in MDCK cells, IFVA/Weiss/43; type: cell-based, influenza virus; settings: unidentified influenza virus, MDCK, 120 h, read-out: EC50(IFVA/Weiss/43), MDCK cells, CPE method, CCK-8 cell viability, 5 days
Note: unit nM is implicit; provide only the numeric part.

# annotated cases, reported EC50 shown
Cn1nnc(C(c2ccccc2)N2C[C@H]3CC[C@@H](C2)N3C(=O)c2cc(-c3nc4cc(N5CCCC5=O)ccc4o3)ccn2)n1 (stereo partly drawn) : 23
O=C(Nc1ccc2oc(-c3ccnc(C(=O)N4CCN(C(c5ccccc5)c5nnn(C(F)F)n5)CC4)c3)nc2c1)C1CCC1 (racemic) : 12

EC50 for CC(=O)Nc1ccc2oc(-c3ccnc(C(=O)N4CCN(C(c5cccc(F)c5)c5nnn(C)n5)CC4)c3)nc2c1 (stereo not drawn) is 173

----------
tested on: IFVA/Weiss/43; assay: cytopathic effect (CPE) antiviral test in MDCK cells, IFVA/Weiss/43; type: cell-based, influenza virus; conditions: unidentified influenza virus, MDCK, 120 h, read-out: EC50(IFVA/Weiss/43), MDCK cells, CPE method, CCK-8 cell viability, 5 days
# maps each entry to its pEC50
pEC50 is defined as minus the log10 of a concentration measured in mol/L.

[2H]C([2H])([2H])C(=O)Nc1ccc2oc(-c3ccnc(C(=O)N4CCN(C(c5ccccc5)c5nnn(C(F)F)n5)CC4)c3)nc2c1 (racemic) : 7.72
O=C(Nc1ccc2nc(-c3ccnc(C(=O)N4CCN(C(c5ccccc5)c5nnn(C(F)F)n5)CC4)c3)oc2c1)C1CC1 (racemic) : 7.92

Recorded pEC50 for O=C(Nc1ccc2oc(-c3ccnc(C(=O)N4CCN([C@H](c5ccccc5)c5nnn(C(F)F)n5)CC4)c3)nc2c1)[C@@H]1CC1(F)F on IFVA/Weiss/43 was 8.70
